Molecular target: Alpha-1A adrenergic receptor (Homo sapiens, UniProt P35348)
Sequence (P35348 whole entry): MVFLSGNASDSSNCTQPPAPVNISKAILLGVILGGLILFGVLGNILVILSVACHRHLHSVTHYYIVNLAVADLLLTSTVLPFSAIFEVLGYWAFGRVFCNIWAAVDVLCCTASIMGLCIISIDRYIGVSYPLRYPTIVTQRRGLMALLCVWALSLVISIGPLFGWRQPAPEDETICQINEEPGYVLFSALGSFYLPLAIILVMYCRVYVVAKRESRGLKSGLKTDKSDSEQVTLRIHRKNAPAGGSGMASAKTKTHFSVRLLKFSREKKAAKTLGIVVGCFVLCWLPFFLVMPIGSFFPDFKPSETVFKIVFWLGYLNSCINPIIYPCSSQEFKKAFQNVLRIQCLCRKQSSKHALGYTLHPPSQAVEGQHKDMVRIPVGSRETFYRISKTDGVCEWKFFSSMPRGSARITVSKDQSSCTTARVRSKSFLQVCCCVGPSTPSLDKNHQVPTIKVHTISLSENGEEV
Assay: Displacement of [3H]prazosin from human recombinant alpha1A adrenoceptor expressed in CHO cells after 30 mins by liquid scintillation counting
parameter: Ki (µM)

compound	meas-value
COc1ccccc1N1CCN(CC2COC3(CCS(=O)(=O)CC3)O2)CC1 (stereo not given)	0.00977
COc1ccccc1N1CCN(CC2COC3(CCN(C(C)=O)CC3)O2)CC1 (stereo not given)	0.0603
COc1ccccc1N1CCN(CC2COC3(CCN(C(=O)Nc4ccccc4)CC3)O2)CC1 (stereo not given)	0.012
COc1ccccc1N1CCN(CC2COC3(CCN(Cc4ccccc4)CC3)O2)CC1 (stereo not given)	0.00676
COc1ccccc1N1CCN(CC2COC3(CCN(C(=O)C4CCCN4)CC3)O2)CC1 (stereo not given)	0.0117
COc1ccccc1N1CCN(CC2COC3(CCN(C(=O)C4CCCCC4)CC3)O2)CC1 (stereo not given)	0.0309
COc1ccccc1N1CCN(CC2COC3(CCN(S(=O)(=O)c4ccccc4)CC3)O2)CC1 (stereo not given)	0.00794
COc1ccccc1N1CCN(CC2COC3(CCN(C(=O)c4ccco4)CC3)O2)CC1 (stereo not given)	0.0214
COc1ccccc1N1CCN(CC2COC3(CCN(S(=O)(=O)c4cccs4)CC3)O2)CC1 (stereo not given)	0.00794
COc1ccccc1N1CCN(CC2COC3(CCN(c4ccccn4)CC3)O2)CC1 (stereo not given)	0.0178

###

Target: Alpha-1D adrenergic receptor (Rattus norvegicus)
Assay: Antagonist activity at alpha1D adrenoceptor in Wistar rat thoracic aorta assessed as noradrenaline-induced contractions after 30 mins
pKb overview

compound	pKb
COc1ccccc1N1CCN(CC2COC3(CCN(S(=O)(=O)c4ccccc4)CC3)O2)CC1 (configuration not stated)	7.05
COc1ccccc1N1CCN(CC2COC3(CCN(S(=O)(=O)c4ccc(Cl)cc4)CC3)O2)CC1 (configuration not stated)	7.37
COc1ccccc1N1CCN(CC2COC3(CCCCC3)O2)CC1 (configuration not stated)	7.88
COc1ccccc1N1CCN(CC2COC3(CCN(c4ccccc4)CC3)O2)CC1 (configuration not stated)	7.43
COc1ccccc1N1CCN(CC2COC3(CCN(c4ccccn4)CC3)O2)CC1 (configuration not stated)	6.87
COc1ccccc1N1CCN(CC2COC3(CCN(C(=O)c4ccc(C(F)(F)F)cc4)CC3)O2)CC1 (configuration not stated)	7.29
COc1ccccc1N1CCN(CC2COC3(CCN(S(C)(=O)=O)CC3)O2)CC1 (configuration not stated)	7.18
COc1ccccc1N1CCN(CC2COC3(CCN(S(=O)(=O)c4ccc([N+](=O)[O-])cc4)CC3)O2)CC1 (configuration not stated)	8.02
COc1ccccc1N1CCN(CC2COC3(CCSCC3)O2)CC1 (configuration not stated)	6.84
COc1ccccc1N1CCN(CC2COC3(CCN(C(=O)C4CCCCC4)CC3)O2)CC1 (configuration not stated)	7.02
COc1ccccc1N1CCN(CC2COC3(CCN(C(=O)c4ccco4)CC3)O2)CC1 (configuration not stated)	7.38
COc1ccccc1N1CCN(CC2COC3(CCN(Cc4ccccc4)CC3)O2)CC1 (configuration not stated)	8.6
COc1ccccc1N1CCN(CC2COC3(CCN(C(=O)NC(C)(C)C)CC3)O2)CC1 (configuration not stated)	6.53
COc1ccccc1N1CCN(CC2COC3(CCN(S(=O)(=O)c4ccc(C)cc4)CC3)O2)CC1 (configuration not stated)	6.96
COc1ccccc1N1CCN(CC2COC3(CCN(C(=O)C4CCCN4)CC3)O2)CC1 (configuration not stated)	6.71
COc1ccccc1N1CCN(CC2COC3(CCOCC3)O2)CC1 (configuration not stated)	7.33
COc1ccccc1N1CCN(CC2COC3(CCN(C(C)=O)CC3)O2)CC1 (configuration not stated)	6.48

Hello, the source for this data is ChEMBL document CHEMBL3351355, in case you need it.
